# system_name: Nanoluciferase-BRD9 fusion protein (Homo sapiens (Human), UniProt Q9H8M2)
# Sequence (Q9H8M2 whole entry, the tested form may be a part): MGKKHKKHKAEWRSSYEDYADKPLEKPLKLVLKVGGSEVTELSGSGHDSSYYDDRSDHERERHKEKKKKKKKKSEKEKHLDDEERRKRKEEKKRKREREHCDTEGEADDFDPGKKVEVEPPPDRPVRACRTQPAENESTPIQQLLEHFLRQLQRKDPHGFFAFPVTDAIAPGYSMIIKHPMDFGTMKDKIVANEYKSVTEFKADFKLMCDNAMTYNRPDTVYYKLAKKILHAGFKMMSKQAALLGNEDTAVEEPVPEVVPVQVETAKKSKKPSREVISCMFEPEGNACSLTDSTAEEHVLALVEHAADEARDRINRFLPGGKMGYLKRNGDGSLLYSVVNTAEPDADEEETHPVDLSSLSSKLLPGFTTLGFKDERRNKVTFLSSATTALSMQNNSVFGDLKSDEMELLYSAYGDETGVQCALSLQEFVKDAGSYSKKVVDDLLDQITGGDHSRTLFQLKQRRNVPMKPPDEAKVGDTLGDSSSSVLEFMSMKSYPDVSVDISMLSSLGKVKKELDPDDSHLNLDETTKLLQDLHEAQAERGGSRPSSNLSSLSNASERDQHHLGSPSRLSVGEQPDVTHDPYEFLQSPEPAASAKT
# assay_details: SYO1 BRD9 NanoLuc degradation assay
# Type: cell-based
# experimental_conditions: Table 5C; SYO-1 cells expressing 3×FLAG-NLuc-BRD9, 6 hours; read-out: SYO1 BRD9-NanoLuc degradation IC50
DC50: recorded values

Some solved cases for reference:
{"compound": "COc1cc(-c2cc(C)c(=O)n(C)c2C)cc(OC)c1CN1CCC2(C1)CN(c1ccc3c(c1)C(=O)N(C1CCC(=O)NC1=O)C3)C2 (stereo not drawn) [Compound D396]", "system_name": "Nanoluciferase-BRD9 fusion protein (Homo sapiens (Human), UniProt Q9H8M2)", "DC50": "< 10 nM"}
{"compound": "C/C=C/Cn1cc(-c2cc(OC)c(CN3CCN(c4ccc5c(c4)C(=O)N(C4CCC(=O)NC4=O)C5)CC3)c(OC)c2)c2cc(C)[nH]c2c1=O (stereo not drawn) [Compound D468]", "system_name": "Nanoluciferase-BRD9 fusion protein (Homo sapiens (Human), UniProt Q9H8M2)", "DC50": "> 1000 nM"}
{"compound": "COc1cc(-c2cn(C)c(=O)c3cnccc23)cc(OC)c1CN1CCC2(CC1)CN(c1ccc3c(c1)C(=O)N(C1CCCC(=O)NC1=O)C3=O)C2 (stereo not drawn) [Compound D388]", "system_name": "Nanoluciferase-BRD9 fusion protein (Homo sapiens (Human), UniProt Q9H8M2)", "DC50": "< 10 nM"}

Measured DC50 (Nanoluciferase-BRD9 fusion protein (Homo sapiens (Human), UniProt Q9H8M2)), entry C/C=C/Cn1cc(-c2cc(OC)c(CN3CCC4(CC3)CN(c3ccc5c(c3)C(=O)N(C3CCC(=O)NC3=O)C5)C4)c(OC)c2)n2cncc2c1=O (stereo not drawn) [Compound D454] : < 10 nM

Measured DC50 (Nanoluciferase-BRD9 fusion protein (Homo sapiens (Human), UniProt Q9H8M2)), entry CCc1cc(-c2cn(C)c(=O)c3cnccc23)cc(OC)c1CN1CC(Oc2ccc3c(c2)C(=O)N(C2CCC(=O)NC2=O)C3=O)C1 (stereo not drawn) [Compound D385] : < 10 nM

Measured DC50 (Nanoluciferase-BRD9 fusion protein (Homo sapiens (Human), UniProt Q9H8M2)), entry COc1cc(-c2cc(C)c(=O)n(C)c2)cc(OC)c1CN1CC(C#Cc2ccc3c(c2)CN(C2CCC(=O)NC2=O)C3=O)C1 (stereo not drawn) [Compound D440] : < 10 nM

Measured DC50 (Nanoluciferase-BRD9 fusion protein (Homo sapiens (Human), UniProt Q9H8M2)), entry COc1cc(-c2cc(C(F)F)c(=O)n(C)c2)cc(OC)c1CN1CCN(CCC2CCN(c3ccc4c(c3)C(=O)N(C3CCC(=O)NC3=O)C4=O)CC2)CC1 (stereo not drawn) [Compound D398] : < 10 nM

Measured DC50 (Nanoluciferase-BRD9 fusion protein (Homo sapiens (Human), UniProt Q9H8M2)), entry CCCn1cc(-c2cc(OC)c(CN3CCC4(C3)CN(c3ccc5c(c3)C(=O)N(C3CCC(=O)NC3=O)C5)C4)c(OC)c2)cc(C(F)F)c1=O (stereo not drawn) [Compound D401] : < 10 nM

Measured DC50 (Nanoluciferase-BRD9 fusion protein (Homo sapiens (Human), UniProt Q9H8M2)), entry COc1cc(-c2cn(C)c(=O)c3nccn23)cc(OC)c1CN1CCC2(CC1)CN(c1ccc3c(c1)C(=O)N(C1CCC(=O)NC1=O)C3)C2 (stereo not drawn) [Compound D447] : 100 to 1000 nM

Measured DC50 (Nanoluciferase-BRD9 fusion protein (Homo sapiens (Human), UniProt Q9H8M2)), entry COc1cc(-c2cc(C)c(=O)n(C)c2)cc(OC)c1CN1CCC(C#Cc2ccc3c(c2)C(=O)N(C2CCC(=O)NC2=O)C3)C1 (stereo not drawn) [Compound D442] : < 10 nM

Measured DC50 (Nanoluciferase-BRD9 fusion protein (Homo sapiens (Human), UniProt Q9H8M2)), entry COc1cc(C(=O)N2CCC3(CC2)CN(c2ccc4c(c2)C(=O)N(C2CCC(=O)NC2=O)C4)C3)cc(-c2cn(C)c(=O)c3cnccc23)c1 (stereo not drawn) [Compound D380] : 10 to 100 nM

Measured DC50 (Nanoluciferase-BRD9 fusion protein (Homo sapiens (Human), UniProt Q9H8M2)), entry COc1cc(-c2cc(C)c(=O)n(C)c2)cc(OC)c1CN1CC(C#Cc2ccc3c(c2)C(=O)N(C2CCC(=O)NC2=O)C3)C1 (stereo not drawn) [Compound D438] : < 10 nM

###

DC50: recorded values
# system_name: Nanoluciferase-BRD9 fusion protein (Homo sapiens (Human))
# assay_details: SYO1 BRD9 NanoLuc degradation assay
# Assay type: cell-based
# experimental_conditions: Table 5C; SYO-1 cells expressing 3×FLAG-NLuc-BRD9, 6 hours; read-out: SYO1 BRD9-NanoLuc degradation IC50

Some solved cases for reference:
{"molecule": "COc1cc(-c2cn(C)c(=O)c3cnccc23)cc(OC)c1CN1CC(Oc2ccc3c(c2)C(=O)N(C2CCC(=O)NC2=O)C3=O)C1 (stereo not drawn)", "result": "< 10 nM"}
{"molecule": "COc1cc(-c2cn(C)c(=O)c3[nH]cc(C)c23)cc(OC)c1CN1CCC2(CC1)CN(c1ccc3c(c1)C(=O)N(C1CCC(=O)NC1=O)C3)C2 (stereo not drawn)", "result": "< 10 nM"}
{"molecule": "COc1cc(-c2cn(C)c(=O)c3cnccc23)cc(OC)c1CN1CCC2(CC1)CN(c1ccc3c(c1)C(=O)N(C1CC(=O)NC1=O)C3=O)C2 (stereo not drawn)", "result": "> 1000 nM"}
{"molecule": "COc1cc(-c2cc(C)c(=O)n(C)c2)cc(OC)c1CN1CC(Cc2ccc3c(c2)C(=O)N(C2CCC(=O)NC2=O)C3)C1 (stereo not drawn)", "result": "10 to 100 nM"}
{"molecule": "COc1cccc(OC)c1CN1CCC2(CC1)CN(c1ccc3c(c1)C(=O)N(C1CCC(=O)NC1=O)C3)C2 (stereo not drawn)", "result": "> 1000 nM"}

Measured DC50 (Nanoluciferase-BRD9 fusion protein (Homo sapiens (Human))), entry COc1cc(-c2cn(C)c(=O)c3cnccc23)cc(OC)c1CN1CCC2(CC1)CN(c1cccc(C(=O)NC3CCC(=O)NC3=O)c1)C2 (stereo not drawn) : 10 to 100 nM

###

# system_name: BRD9 bromodomain (Homo sapiens (Human))
# Sequence (Q9H8M2 133-239): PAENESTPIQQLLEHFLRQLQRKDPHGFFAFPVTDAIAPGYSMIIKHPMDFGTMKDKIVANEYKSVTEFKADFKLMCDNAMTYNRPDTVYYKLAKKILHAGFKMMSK
# assay_details: BRD9 bromodomain TR-FRET competition binding assay
# experimental_conditions: Table 4; competition with biotinylated ligand, 3 nM Flag-BRD9, 90 minutes
# Experimental: Procedure: His-Flag-BRD9 (P133-K239; Swiss Prot Q9H8M2; SEQ ID NO:1 mgsshhhhhhenlyfq/gdykddddkgslevlfqg/[…] […]) was cloned, expressed, purified, and then treated with TEV protease. Cleaved His tag was removed by purification. The binding of a biotinylated small molecule ligand of BRD9 was assessed via the LANCE® TR-FRET platform (PerkinElmer), and the compounds were assayed for inhibitory activity against this interaction. […]
IC50: recorded values

Some solved cases for reference:
{"compound": "COc1cc(-c2cn(C)c(=O)c3cnccc23)cc(OC)c1CN1CC[C@H]1C(=O)NCCCCCCCCNc1cccc2c1C(=O)N(C1CCC(=O)NC1=O)C2=O (some centres unmarked)", "property_name": "IC50", "result": "10 to 100 nM"}
{"compound": "COc1cc(-c2cn(C)c(=O)c3cnccc23)cc(OC)c1CN1CCC12CN(C(=O)CCOCCOc1ccc3c(c1)C(=O)N(C1CCC(=O)NC1=O)C3=O)C2 (centres unmarked)", "property_name": "IC50", "result": "100 to 1000 nM"}
{"compound": "COc1cc(-c2cn(C)c(=O)c3cnccc23)cc(OC)c1CN1CCC2(C[C@H]2NC(=O)CCOCCOc2cccc3c2C(=O)N(C2CCC(=O)NC2=O)C3=O)C1 (some centres unmarked)", "property_name": "IC50", "result": "< 10 nM"}
{"compound": "COc1cc(-c2cn(C)c(=O)c3cnccc23)cc(OC)c1CN(C)CC1CC2CN(C(=O)CCOCCOc3cccc4c3C(=O)N(C3CCC(=O)NC3=O)C4=O)C[C@@H]2C1 (some centres unmarked)", "property_name": "IC50", "result": "< 10 nM"}

--- query ---
Measured IC50 (BRD9 bromodomain (Homo sapiens (Human))), entry COc1cc(-c2cn(C)c(=O)c3cnccc23)cc(OC)c1CN1CCN(C(=O)C2CC2CNC(=O)COc2ccc3c(c2)C(=O)N(C2CCC(=O)NC2=O)C3=O)CC1 (centres unmarked) : 10 to 100 nM

###

# system_name: Nanoluciferase-BRD9 fusion protein (Homo sapiens (Human))
# assay_details: SYO1 BRD9 NanoLuc degradation assay
# Type: cell-based
# experimental_conditions: Table 5C; SYO-1 cells expressing 3×FLAG-NLuc-BRD9, 6 hours; read-out: SYO1 BRD9-NanoLuc degradation IC50
DC50: recorded values

Some solved cases for reference:
{"compound": "COc1cc(-c2cn(C)c(=O)c3cnccc23)cc(OC)c1CN1CC(Oc2ccc3c(c2)C(=O)N(C2CCC(=O)NC2=O)C3)C1 (stereo not drawn)", "system_name": "Nanoluciferase-BRD9 fusion protein (Homo sapiens (Human))", "result": "< 10 nM"}
{"compound": "COc1cc(-c2nc(N)nc3[nH]cnc23)cc(OC)c1CN1CCC2(CC1)CN(c1ccc3c(c1)C(=O)N(C1CCC(=O)NC1=O)C3)C2 (stereo not drawn)", "system_name": "Nanoluciferase-BRD9 fusion protein (Homo sapiens (Human))", "result": "10 to 100 nM"}
{"compound": "COc1cc(-c2cn(C)c(=O)c(C)n2)cc(OC)c1CN1CCC2(CC1)CN(c1ccc3c(c1)C(=O)N(C1CCC(=O)NC1=O)C3)C2 (stereo not drawn)", "system_name": "Nanoluciferase-BRD9 fusion protein (Homo sapiens (Human))", "result": "10 to 100 nM"}
{"compound": "COc1cc(-c2cc(C)c(=O)n(C)c2)cc(OC)c1CN1CCC(C#Cc2ccc3c(c2)C(=O)N(C2CCC(=O)NC2=O)C3)CC1 (stereo not drawn)", "system_name": "Nanoluciferase-BRD9 fusion protein (Homo sapiens (Human))", "result": "< 10 nM"}
{"compound": "COc1cc(-c2cc(C(F)F)c(=O)n(C)c2)cc(OC)c1CN1CCC2(CC1)CN(c1ccc3c(c1)C(=O)N(C1CCC(=O)NC1=O)C3)C2 (stereo not drawn)", "system_name": "Nanoluciferase-BRD9 fusion protein (Homo sapiens (Human))", "result": "< 10 nM"}
{"compound": "COc1cc(-c2cn(C)c(=O)c3cnccc23)cc(OC)c1CN1CCC2(CC1)CN(c1ccc3c(c1)C(=O)N(C1CC(=O)NC(=O)C1)C3)C2", "system_name": "Nanoluciferase-BRD9 fusion protein (Homo sapiens (Human))", "result": "> 1000 nM"}
{"compound": "COc1cc(-c2cn(C)c(=O)c3cn(C)nc23)cc(OC)c1CN1CCC2(CC1)CN(c1ccc3c(c1)C(=O)N(C1CCC(=O)NC1=O)C3=O)C2 (stereo not drawn)", "system_name": "Nanoluciferase-BRD9 fusion protein (Homo sapiens (Human))", "result": "< 10 nM"}
{"compound": "Cc1cc(-c2ccc(CN3CCN(c4ccc5c(c4)C(=O)N(C4CCC(=O)NC4=O)C5)CC3)cc2)cn(C)c1=O (stereo not drawn)", "system_name": "Nanoluciferase-BRD9 fusion protein (Homo sapiens (Human))", "result": "< 10 nM"}

Documented DC50 of C/C=C/Cn1cc(-c2ccc(CN3CCC4(CC3)CN(c3ccc5c(c3)C(=O)N(C3CCC(=O)NC3=O)C5)C4)c(Cl)c2)n2cncc2c1=O (stereo not drawn) : < 10 nM

Documented DC50 of COc1cc(-c2cc(C(F)F)c(=O)n(C)c2)cc(OC)c1CN1CCC2(C1)CN(c1ccc3c(c1)C(=O)N(C1CCC(=O)NC1=O)C3)C2 (stereo not drawn) : < 10 nM

Documented DC50 of COc1cc(-c2cc(C)c(=O)n(C)c2C)cc(OC)c1CN1CCN(c2ccc3c(c2)CN(C2CCC(=O)NC2=O)C3=O)CC1 (stereo not drawn) : < 10 nM

Documented DC50 of COc1cc(-c2cn(C)c(=O)c3cnccc23)cc(OC)c1CN1CCC2(CC1)CN(c1ccc3c(c1)C(=O)N(C1CCC(=O)NC1=O)C3=O)C2 (stereo not drawn) : < 10 nM
